Test system: Fibroblast
assay-details: Incucyte cell viability with human fibroblast; further: unitless GR value; below 1 slowed growth and below 0 cell loss
Assay type: toxicity, cell-based
assay-context: 18 h, 10 µM, compound concentration 10 uM, replicate number 1, timepoint 18 hours
measured-metric: Growth Rate

{"molecule": "S=C(NCCCc1c[nH]cn1)NCCCN(Cc1ccc(Cl)c(Cl)c1)c1ccc(Br)cn1", "measured": -0.18}
{"molecule": "CN1CCN(c2cc(-c3ccccc3)nc(N)n2)CC1", "measured": 0.76}
{"molecule": "CCC(=O)NC[C@@H]1C[C@H]1c1cccc2c1CCO2 [TASIMELTEON]", "measured": 0.69}
{"molecule": "CCCCCCCCc1ccc(CC[C@](N)(CO)COP(=O)(O)O)cc1 [FTY720-P]", "measured": 0.14}
{"molecule": "COc1ccc(S(=O)(=O)N2C(=O)[C@@](c3ccccc3OC)(N3C[C@H](O)C[C@H]3C(=O)N(C)C)c3cc(Cl)ccc32)c(OC)c1", "measured": 0.36}
